System: COLO 205 colon
Experiment: NCI tumour cell line growth inhibition, 48 h
MEASUREMENT_TYPE: TGI (µM)
Report the value in µM with no unit label.

| COMPOUND | UNIT_DESCRIPTOR | ENDPOINT_VALUE |
| --- | --- | --- |
| COc1cc(Nc2c(C#N)cnc3cc(OCCCN4CCN(C)CC4)c(OC)cc23)c(Cl)cc1Cl | µM | 3.03 |

Field: next compound
Entry COc1ccc(C2CC(C)(O)Oc3cc4c(cc32)OCO4)cc1 (centres undefined) under COLO 205 colon had TGI of 46

* * *

Below, each of the compounds is paired with its reported TGI value.
Tested on: HL-60(TB) leukemia
Experiment: NCI tumour cell line growth inhibition, 48 h

Example entries begin here.
| SMILES_DATA | ENDPOINT_VALUE |
| --- | --- |
| CC(C)(C)OC(=O)N1CCC(C(=O)O)CC1 | > 100 µM |
| COC(=O)c1ccccc1OCc1cc(=O)oc2ccc(C)cc12 | > 100 µM |

// COc1cc(-c2cc(-c3ccccc3)nc(-c3c(OC)ccc4c(C)cc(=O)oc34)c2)cc(OC)c1OC : TGI value = > 100 µM

* * *

Below, each of the compounds is paired with its reported TGI value.
Tested on: SW-620 colon
Test: NCI tumour cell line growth inhibition, 48 h

Example entries begin here.
| SMILES_DATA | TGI |
| --- | --- |
| O=c1[nH]nc2ccccc2c1Cc1ccccc1 | > 100 µM |
| O=C(NCCNCCCNC(=O)c1cc(-c2ccccc2)nc2ccccc12)c1cccc(O)c1O | > 100 µM |

Field: next compound
// CC1=NN(c2nc(N)nc(CSc3nc4n(c(=S)n3)CCN4)n2)C(C)(C)C1 : TGI value = > 100 µM

* * *

Test system: MALME-3M melanoma
Experiment: NCI tumour cell line growth inhibition, 48 h
MEASUREMENT_TYPE: TGI

| SMILES_DATA | SYSTEM | TGI |
| --- | --- | --- |
| CN1CCN(c2ncc3c(n2)sc2c(=O)n(-c4ccccc4)cnc23)CC1 | MALME-3M melanoma | > 100 µM |
| Cc1cccc(CP(Cc2cccc(C)c2)CC2(Cp3c4ccccc4c4ccccc43)COC2)c1 | MALME-3M melanoma | > 83.3 µM |
| O=c1[nH]nc2ccccc2c1Cc1ccccc1 | MALME-3M melanoma | > 100 µM |
| O=c1c2ccccc2c(=O)n2n1CC=CC2 | MALME-3M melanoma | > 100 µM |

Field: next compound
Entry C[C@H](NC(=O)c1ccc(CNC(=O)/C=C/c2cccc(Oc3ccccc3)c2)cc1)c1ccccc1 under MALME-3M melanoma had TGI of > 100 µM

* * *

Tested on: 786-0 renal
Experiment: NCI tumour cell line growth inhibition, 48 h
MEASUREMENT_TYPE: TGI

| MOLECULE | SYSTEM | TGI |
| --- | --- | --- |
| Cn1c(O)c(C=Nc2ccccc2[N+](=O)[O-])c(=O)n(C)c1=O | 786-0 renal | > 100 µM |
| CC(C)OCC1CC(CC(=O)Nc2nncs2)C(=O)O1 (stereo unspecified) | 786-0 renal | > 100 µM |
| CCn1c(SCC(=O)NNC(=S)Nc2ccc([N+](=O)[O-])cc2)nc2ccccc2c1=O | 786-0 renal | > 100 µM |
| CCN(CC(=O)O)C(=O)c1cccnc1 | 786-0 renal | > 100 µM |
| COc1cc(CO)c(CC(=O)NCCCc2ccccc2)cc1OC | 786-0 renal | > 100 µM |
| c1ccc(CN2CCC3(CC2)SSC2(CCN(Cc4ccccc4)CC2)S3)cc1 | 786-0 renal | > 100 µM |
| COc1cc2oc3cc(=O)cc4oc(-c5ccccc5)cc(c2c2c1CCC(c1ccccc1)O2)c43 (stereo unspecified) | 786-0 renal | > 100 µM |
| CCN(CC)CCOc1ccc(CCc2cc(OC)c(OC)c(OC)c2)cc1 | 786-0 renal | > 100 µM |

Field: next molecule
// O=c1cc(-c2ccccc2F)[nH]c2ccc(N3CCCC3)cc12 : TGI value = > 100 µM
